Attribution: the supplement of paper PMC10065799

For each entry below, report its phosphorylation enrichment value.
- target-entity: FGFR1 (UniProt P11362)
- Sequence (P11362 whole entry, looked up): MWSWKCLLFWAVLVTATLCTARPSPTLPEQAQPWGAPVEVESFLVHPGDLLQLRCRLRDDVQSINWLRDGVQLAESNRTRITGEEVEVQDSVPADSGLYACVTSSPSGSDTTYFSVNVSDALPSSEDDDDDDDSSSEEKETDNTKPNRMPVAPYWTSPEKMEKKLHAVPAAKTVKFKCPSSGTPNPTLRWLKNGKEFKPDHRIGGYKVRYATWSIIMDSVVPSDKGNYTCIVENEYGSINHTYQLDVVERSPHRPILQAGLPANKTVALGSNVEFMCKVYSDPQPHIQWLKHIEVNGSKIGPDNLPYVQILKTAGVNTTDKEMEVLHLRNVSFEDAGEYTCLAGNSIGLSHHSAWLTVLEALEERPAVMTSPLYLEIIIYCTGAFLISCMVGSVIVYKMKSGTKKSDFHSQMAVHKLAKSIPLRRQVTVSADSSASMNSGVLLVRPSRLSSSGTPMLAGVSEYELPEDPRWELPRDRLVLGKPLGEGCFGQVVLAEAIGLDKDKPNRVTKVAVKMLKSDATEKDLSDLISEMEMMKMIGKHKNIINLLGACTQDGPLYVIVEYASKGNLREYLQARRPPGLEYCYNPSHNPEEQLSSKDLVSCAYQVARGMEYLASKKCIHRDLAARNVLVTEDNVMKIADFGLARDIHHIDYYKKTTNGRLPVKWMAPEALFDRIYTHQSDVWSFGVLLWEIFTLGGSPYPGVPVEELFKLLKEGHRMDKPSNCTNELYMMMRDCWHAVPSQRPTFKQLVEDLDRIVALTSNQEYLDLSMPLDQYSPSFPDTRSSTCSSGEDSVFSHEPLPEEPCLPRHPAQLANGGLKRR
- test-method-notes: phosphorylation enrichment, bacterial display (enrichment ratio); higher = better substrate or ligand; peptides without Tyr show the background

Consider the reported phosphorylation enrichment for these sequences:
[
  {
    "sequence": "KDHPDYKFQAR [SOX10_Y171_P175A_YF]",
    "phosphorylation enrichment": 0.466
  },
  {
    "sequence": "RLEKEYFDQHF [NPC1_Y394]",
    "phosphorylation enrichment": 1.39
  },
  {
    "sequence": "LQLLGYRPVYS [CHST6_Y358]",
    "phosphorylation enrichment": 0.718
  }
]

Now look at this one.
[Q] Any idea what phosphorylation enrichment was measured for DTFDPYLDIAL [USP36_Y268_V271I_YF] ?
[A] 0.783

====

- target-entity: FGFR1 (UniProt P11362)
- test-method-notes: phosphorylation enrichment, bacterial display (enrichment ratio); higher = better substrate or ligand; peptides without Tyr show the background
experimental-readout: phosphorylation enrichment
Numbers only.

Consider the reported phosphorylation enrichment for these sequences:
[
  {
    "sequence": "FGRTFYNQANM [MCCC2_Y196_I200N]",
    "quantitative-readout": 0.433
  },
  {
    "sequence": "LHSEAYLKYIE [PBRM1_Y1610]",
    "quantitative-readout": 0.633
  },
  {
    "sequence": "KGEDFYCVTFH [FHL1_Y149_C153Y_YF]",
    "quantitative-readout": 0.952
  },
  {
    "sequence": "SIKDKYVTAFF [KCNH2_Y611_L615F_YF]",
    "quantitative-readout": 0.403
  },
  {
    "sequence": "RIFDYYSARKT [STOX1_Y858_A863T]",
    "quantitative-readout": 0.503
  }
]

Provide the reported phosphorylation enrichment of each entry below, same order.
1. AAVDTVCRHNY [HLA-DRB1_Y107_Y107V]
2. NACGLYFKLHN [GATA2_Y376_YF]
3. STSKTYVISRT [RBBP6_Y87]

[A]
1: 0.612; 2: 0.437; 3: 0.503

Provide the reported phosphorylation enrichment of each entry below, same order.
1. DLDLTYIYPNI [PTEN_Y27]
2. HQIQSYTCEID [DES_Y331]
3. KVVQEYERVII [NPHS2_Y131]
4. TEDELYQLSLQ [RASGRP2_Y378]
5. QEGPEYWDQET [HLA-A_Y83]
6. RGGWAYVLHPT [TRMT61A_Y67_V66A]
7. LSRDVYEEDSY [RET_Y900]

[A]
[3.8, 0.822, 0.633, 0.476, 0.816, 0.663, 0.656]

Provide the reported phosphorylation enrichment of each entry below, same order.
1. QKNVSYVSTVS [TASOR_Y1043]
2. QFKGKYLAKHN [CASK_Y712_D710G_YF]
3. RRVEPYGENFN [APOA4_Y310]
4. RRVLVYRGRGA [QDPR_Y16_G17R]
5. RKLASYRSCLL [DHX37_Y1080]
6. PVQAPYQKVVA [HBB_Y131_A130P]

[A]
0.405
0.498
0.421
0.758
0.581
0.436

====

- target-entity: c-Src SH2;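 also: peptide library displayed on the E. coli surface as eCPX fusions, selected cells deep-sequenced, score is each peptide's frequency after selection divided by its frequency in the input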
- test-method-notes: SH2 binding enrichment of the phosphorylated peptide, bacterial display (enrichment ratio); higher = better substrate or ligand; peptides without Tyr show the background
Values of SH2 binding enrichment greater than or equal to 0.5 map to Y; values below map to N.

Example entries begin here.
[
  {
    "sequence": "SVGVPYEPPEV [TP53_Y220_V217G]",
    "classification": "N"
  },
  {
    "sequence": "VLTSKYRGGGG [HBA1_Y141]",
    "classification": "Y"
  },
  {
    "sequence": "ENRKFYKDLKE [PURA_Y156_M157K_YF]",
    "classification": "N"
  },
  {
    "sequence": "AAVDTVCRHNY [HLA-DRB1_Y107_Y107V]",
    "classification": "Y"
  },
  {
    "sequence": "LHSEAYLKYIE [PBRM1_Y1610]",
    "classification": "N"
  }
]

[Q] Reported SH2 binding enrichment at or above 0.5? SSYSGYIMMPN [LEF1_Y114]
[A] Y

[Q] Reported SH2 binding enrichment at or above 0.5? KEKLCYVALDF [ACTA1_Y220]
[A] N

[Q] Reported SH2 binding enrichment at or above 0.5? YGGLRYGYGGL [KRTAP20-2_Y13_V17G]
[A] Y
